# TEST: Peptide stability in simulated intestinal fluid (SIF)
# Format: in vitro ADME
# CONDITION SUMMARY: pig, simulated intestinal fluid; SIF, 1 h, pH 6.8, pancreatin, 37° C., 10 μM
MEASURED METRIC: remaining at 1 h, 10 µM (%)

• CNC(=O)[C@H](Cc1cccnc1)NC(=O)[C@H](CCN)NC(=O)[C@@H]1CCC(=O)NCc2ccc(cc2)CC(=O)N[C@@H](CO)C(=O)N[C@H]2CCC(=O)NCC[C@H](NC(=O)[C@H](CCC(N)=O)NC(=O)[C@H](Cc3c[nH]c4ccccc34)NC2=O)C(=O)N[C@@H](Cc2ccc(OCCN)cc2)C(=O)N[C@@H](Cc2ccc3ccccc3c2)C(=O)N[C@@](C)(CC(C)C)C(=O)N1 = 96
• CC(C)C[C@]1(C)NC(=O)[C@H](Cc2ccc3ccccc3c2)NC(=O)[C@H](Cc2ccc(OCCN)cc2)NC(=O)[C@@H]2CCNC(=O)CC[C@H](NC(=O)[C@H](CO)NC(=O)Cc3ccc(cc3)CNC(=O)CC[C@@H](C(=O)N[C@@H](CCN)C(=O)N[C@H](Cc3c[nH]cn3)C(N)=O)NC1=O)C(=O)N[C@@H](Cc1c[nH]c3ccccc13)C(=O)N[C@@H](CCC(N)=O)C(=O)N2 = 84

Every entry's value here was drawn from patent US20260327264A1.
